# test_system: GDP-loaded KRAS G12D (Homo sapiens, UniProt P01116, G12D)
# assay_info: KRAS G12D Probe Displacement Assay
# Type: binding
# condition_summary: KRAS G12D 0.5 nM, biotinylated probe 2 4 nM; Table 6 letters; read-out: KRAS G12D Probe Displacement Assay IC50 (class)
pIC50: −log10 of the molar value.
parameter: pIC50

Some solved entries appear below for comparison.
[[record]]
compound = "Cc1cc(N)nc(-c2c(Cl)cc3c(N4CC5CCC(C4)N5)nc(OCC(C)(C)C#N)nc3c2F)c1C(F)(F)F [Example E194]"
measured_value = "> 7.30"

[[record]]
compound = "Cn1nc(N)c(-c2cc3nc(OC[C@@]45CCCN4C[C@H](F)C5)nc(N4CC5CCC(C4)N5)c3cc2Cl)c1C1CC1 [Example E135]"
measured_value = "< 6.00"

[[record]]
compound = "CN1CCCC(C#N)(COc2nc(N3CC4CCC(C3)N4)c3cc(Cl)c(-c4ccc(F)c5sc(N)nc45)c(F)c3n2)C1 (stereo not drawn) [Example E178]"
measured_value = "> 7.30"

[[record]]
compound = "CC(=O)N1CCCC(COc2nc(N3CC4CCC(C3)N4)c3cc(C(F)(F)F)c(-c4ccc(F)c5sc(N)nc45)c(F)c3n2)C1 (stereo not drawn) [Example E223]"
measured_value = "> 7.30"


I am curious: what pIC50 value has been reported for Nc1cc(-c2cc3nc(OC[C@@]45CCCN4C[C@H](F)C5)nc(N4CC5CCC(C4)N5)c3cc2Cl)c(C(F)(F)F)c(C(F)(F)F)c1 [Example E237] ?
> 7.30

I am curious: what pIC50 value has been reported for N#Cc1c(N)sc2c(F)ccc(-c3c(Cl)cc4c(N5CC6CCC(C5)N6)nc(OCC5(CN6CCC(F)C6)CCC5)nc4c3F)c12 (stereo not drawn) [Example E132] ?
> 7.30

###

Target or system WT KRAS:SOS1 (Homo sapiens): recorded pIC50 listed per item.
Scale explanation: pIC50 corresponds to minus log10 of a concentration expressed in moles per litre.

[[record]]
compound = "Cc1cc(N)nc(-c2c(Cl)cc3c(N4CC5CCC(C4)N5)nc(OCC45CCCN4CC(F)C5)nc3c2F)c1C(F)(F)F (stereo not drawn) [Example E50]"
parameter = "pIC50"
measured_value = 6.85

[[record]]
compound = "C[C@@H](CN1CCCCC1)Oc1nc(N2C3CCC2CNC3)c2cc(Cl)c(-c3ccc(F)c4sc(N)nc34)c(F)c2n1 [Example E18]"
parameter = "pIC50"
measured_value = 7.46

[[record]]
compound = "CO[C@@H]1C[C@@H](COc2nc(N3CC4CCC(C3)N4)c3cc(Cl)c(-c4ccc(F)c5sc(N)nc45)c(F)c3n2)N(C)C1 [Example E14]"
parameter = "pIC50"
measured_value = 7.17


I am curious: what pIC50 value has been reported for CN1C[C@H](F)C[C@H]1COc1nc(N2CC3CCC(C2)N3)c2cc(Cl)c(-c3ccc(F)c4sc(N)nc34)c(F)c2n1 [Example E15] ?
7.08

I am curious: what pIC50 value has been reported for C[C@@H](CN1CCC(F)(F)CC1)Oc1nc(N2C3CCC2CNC3)c2cc(Cl)c(-c3ccc(F)c4sc(N)nc34)c(F)c2n1 [Example E19] ?
6.25

I am curious: what pIC50 value has been reported for CC(CN1CCCCC1)Oc1nc(N2C3CCC2C(N)C3)c2cc(Cl)c(-c3ccc(F)c4sc(N)nc34)c(F)c2n1 (stereo not drawn) [Example E9] ?
6.42

###

# test_system: GDP-loaded KRAS G12D (Homo sapiens, UniProt P01116, G12D)
# assay_info: KRAS G12D Probe Displacement Assay
# Format: binding
# condition_summary: KRAS G12D 0.5 nM, biotinylated probe 2 4 nM; read-out: KRAS G12D Probe Displacement Assay IC50
Overview of reported log10(IC50) across a group of compounds:
Scale: log10; quantity: IC50; unit before log: pM

Some solved entries appear below for comparison.
[[record]]
compound = "Cc1c(-c2ccc(F)c3sc(N)nc23)c(C(F)(F)F)cc2c(N3CC4CCC(C3)N4)nc(OC[C@@]34CCCN3C[C@H](F)C4)nc12"
test_system = "GDP-loaded KRAS G12D (Homo sapiens, UniProt P01116, G12D)"
parameter = "log10(IC50)"
measured_value = 2.08

[[record]]
compound = "Nc1nc2c(-c3c(Cl)cc4c(N5CC6CCC(C5)N6)nc(OC[C@@]56CCCN5C[C@H](F)C6)nc4c3F)c(F)cc(F)c2s1"
test_system = "GDP-loaded KRAS G12D (Homo sapiens, UniProt P01116, G12D)"
parameter = "log10(IC50)"
measured_value = 2.36

[[record]]
compound = "Cc1cc(N)nc(-c2c(Cl)cc3c(N4CC5CCC(C4)N5)nc(O[C@@H](C)CN4CCCCC4)nc3c2F)c1C(F)(F)F"
test_system = "GDP-loaded KRAS G12D (Homo sapiens, UniProt P01116, G12D)"
parameter = "log10(IC50)"
measured_value = 5.11

[[record]]
compound = "Nc1nc2c(-c3c(OC(F)(F)F)cc4c(N5CC6CCC(C5)N6)nc(OC[C@@]56CCCN5C[C@H](F)C6)nc4c3F)ccc(F)c2s1"
test_system = "GDP-loaded KRAS G12D (Homo sapiens, UniProt P01116, G12D)"
parameter = "log10(IC50)"
measured_value = 2.38


I am curious: what log10(IC50) value has been reported for Nc1nc2c(-c3c(C(F)(F)F)cc4c(N5C6CNCC5COC6)nc(OC[C@@]56CCCN5C[C@H](F)C6)nc4c3F)ccc(F)c2s1 ?
2.40

I am curious: what log10(IC50) value has been reported for Nc1nc2c(-c3c(C(F)(F)F)cc4c(N5CC6CC(C5)N6)nc(OC[C@@]56CCCN5C[C@H](F)C6)nc4c3F)ccc(F)c2s1 ?
2.62

I am curious: what log10(IC50) value has been reported for Cc1cc(N)nc(-c2c(C(F)(F)F)cc3c(N4CC5CCC(C4)N5)nc(OC[C@@]45CCCN4C[C@H](F)C5)nc3c2F)c1C(F)(F)F ?
2.72

I am curious: what log10(IC50) value has been reported for Cc1cc(N)nc(-c2c(Cl)cc3c(N4CC5CCC(C4)N5)nc(OC[C@@H]4C[C@@H](F)CN4C)nc3c2F)c1C(F)(F)F ?
4.20

I am curious: what log10(IC50) value has been reported for Nc1cc(Cl)c(C(F)(F)F)c(-c2c(Cl)cc3c(N4CC5CCC(C4)N5)nc(OC[C@@]45CCCN4C[C@H](F)C5)nc3c2F)n1 ?
2.64

I am curious: what log10(IC50) value has been reported for Nc1nc2c(-c3c(C(F)(F)F)cc4c(N5CC6CCC(C5)N6)nc(OC[C@@]56CCCN5C[C@H](F)C6)nc4c3Cl)ccc(F)c2s1 ?
2.52

I am curious: what log10(IC50) value has been reported for CN(C)CC1(COc2nc(N3CC4CCC(C3)N4)c3cc(Cl)c(-c4ccc(F)c5sc(N)nc45)c(F)c3n2)CC1 ?
2.54

I am curious: what log10(IC50) value has been reported for C[C@@H](CN1CCC(F)C1)Oc1nc(N2C3CCC2CNC3)c2cc(Cl)c(-c3ccc(F)c4sc(N)nc34)c(F)c2n1 (stereo partly shown) ?
3.92

I am curious: what log10(IC50) value has been reported for Oc1cccc(F)c1-c1c(Cl)cc2c(N3CC4CCC(C3)N4)nc(OC[C@@]34CCCN3C[C@H](F)C4)nc2c1F ?
3.84

I am curious: what log10(IC50) value has been reported for CC(C)c1cc2c(N3CC4CCC(C3)N4)nc(OC[C@@]34CCCN3C[C@H](F)C4)nc2c(F)c1-c1ccc(F)c2sc(N)nc12 ?
2.77

I am curious: what log10(IC50) value has been reported for CCc1cc2c(N3CC4CCC(C3)N4)nc(OC[C@@]34CCCN3C[C@H](F)C4)nc2c(F)c1-c1ccc(F)c2sc(N)nc12 ?
2.65

###

# test_system: KRAS G12D:SOS1 (Homo sapiens, UniProt P01116, G12D)
# Sequence (P01116 1-188 isoform P01116-2 G12D): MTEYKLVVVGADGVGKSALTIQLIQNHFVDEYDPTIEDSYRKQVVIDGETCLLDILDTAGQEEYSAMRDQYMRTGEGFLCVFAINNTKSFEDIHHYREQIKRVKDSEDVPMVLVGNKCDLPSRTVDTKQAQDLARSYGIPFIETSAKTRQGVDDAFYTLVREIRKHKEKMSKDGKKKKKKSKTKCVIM
# assay_info: KRAS G12D:SOS1 GDP TR-FRET assay
# condition_summary: GST-KRAS G12D 37.5 nM, GDP 10 μM, His-SOS1 18 nM
pIC50: −log10 of the molar value.
The threshold is inclusive: pIC50 of exactly 8 counts as satisfied; values below receive not satisfied.

Known results for molecules:
[[record]]
molecule = "CS(=O)(=O)N1CCN(c2nc(OC[C@@H]3CCCN3CCCOCCC(=O)NCCOCCNC(=O)CCCC[C@@H]3SC[C@@H]4NC(=O)N[C@@H]43)nc3c2CCN(c2cccc4cccc(Cl)c24)C3)C[C@@H]1CC#N [Example E57]"
class_name = "not satisfied"

[[record]]
molecule = "Nc1nc2c(-c3c(Cl)cc4c(N5CCNCC5)nc(OCCCN5CCN(CCCOCCC(=O)NCCOCCNC(=O)CCCC[C@@H]6SC[C@@H]7NC(=O)N[C@@H]76)CC5)nc4c3F)ccc(F)c2s1 [Example E56]"
class_name = "not satisfied"

[[record]]
molecule = "Nc1nc2c(-c3c(Cl)cc4c(N5CC6CCC(C5)N6)nc(OCC56CCCN5CCC6)nc4c3F)ccc(F)c2s1 [Example E7]"
class_name = "satisfied"

[[record]]
molecule = "CN(C)CCCOc1nc(N2CCNCC2)c2cc(Cl)c(-c3cc(O)cc4ccccc34)c(F)c2n1 [Example E1]"
class_name = "not satisfied"


Moving on to another molecule below.
# check: pIC50 of CC(CN1CCCCC1)Oc1nc(N2CC3CCC(C2)N3)c2cc(Cl)c(-c3ccc(F)c4sc(N)nc34)c(F)c2n1 (stereo not drawn) [Example E5] is greater than or equal to 8
not satisfied

All values here come from patent US20240140957A1.
